- measured_target: stearoyl-CoA Δ9-desaturase (PfSCD, PFE0555w) (Plasmodium falciparum, UniProt Q8I0W9)
- Construct: gene PF3D7_0511200; native enzyme in crude schizont lysate (500 µg total protein)
- Sequence (Q8I0W9 entry or part of it, stated change not applied): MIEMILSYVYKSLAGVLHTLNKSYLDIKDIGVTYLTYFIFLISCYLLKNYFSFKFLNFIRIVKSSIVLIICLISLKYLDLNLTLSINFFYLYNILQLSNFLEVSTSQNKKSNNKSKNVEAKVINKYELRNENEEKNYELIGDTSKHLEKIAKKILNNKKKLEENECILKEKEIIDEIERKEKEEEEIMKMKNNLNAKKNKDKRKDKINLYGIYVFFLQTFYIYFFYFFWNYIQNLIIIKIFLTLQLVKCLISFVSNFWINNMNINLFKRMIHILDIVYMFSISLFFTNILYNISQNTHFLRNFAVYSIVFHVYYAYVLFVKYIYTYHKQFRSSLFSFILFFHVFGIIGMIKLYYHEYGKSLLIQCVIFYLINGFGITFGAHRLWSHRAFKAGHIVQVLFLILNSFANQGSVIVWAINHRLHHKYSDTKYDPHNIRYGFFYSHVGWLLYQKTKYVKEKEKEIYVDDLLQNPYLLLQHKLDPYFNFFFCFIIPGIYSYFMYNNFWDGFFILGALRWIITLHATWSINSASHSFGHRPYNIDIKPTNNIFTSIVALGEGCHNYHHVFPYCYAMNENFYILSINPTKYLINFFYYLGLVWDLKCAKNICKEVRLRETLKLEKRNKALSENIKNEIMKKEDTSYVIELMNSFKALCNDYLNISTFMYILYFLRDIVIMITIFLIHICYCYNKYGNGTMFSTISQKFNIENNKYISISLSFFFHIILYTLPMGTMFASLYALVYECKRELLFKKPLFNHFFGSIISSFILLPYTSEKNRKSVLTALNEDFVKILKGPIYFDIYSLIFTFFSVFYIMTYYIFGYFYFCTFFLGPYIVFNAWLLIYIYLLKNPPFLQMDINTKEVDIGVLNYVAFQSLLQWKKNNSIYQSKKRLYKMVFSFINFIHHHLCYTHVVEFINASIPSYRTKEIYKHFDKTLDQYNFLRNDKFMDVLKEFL
- procedure_text: cell-free desaturase assay in schizont lysates, […]-stearoyl-CoA to oleic acid, silver nitrate TLC
- Assay type: biochemical
test_readout: IC50 (µM)
Supply the numeric figure in µM, leaving out any unit text.

QUERY: Find the recorded IC50 belonging to CCCCCCCCC1=C(CCCCCCCC(=O)OC)C1 [MeSter, methyl sterculate] and report it.
RESULT: 105

// data source = paper PMC2731242
